Numbers sourced from PubChem BioAssay.

biological target: NADPH oxidase 5 (Homo sapiens) (UniProt Q96PH1); assay: NOX5-dependent H2O2 signal modulators, primary screen, NOX inhibitor project, cell-based, HEK293-NOX5, Amplex Red fluorescence (AID 1161); conditions: HEK293-NOX5, ionomycin, 45 min, higher = more signal
Sequence (Q96PH1 whole entry, looked up): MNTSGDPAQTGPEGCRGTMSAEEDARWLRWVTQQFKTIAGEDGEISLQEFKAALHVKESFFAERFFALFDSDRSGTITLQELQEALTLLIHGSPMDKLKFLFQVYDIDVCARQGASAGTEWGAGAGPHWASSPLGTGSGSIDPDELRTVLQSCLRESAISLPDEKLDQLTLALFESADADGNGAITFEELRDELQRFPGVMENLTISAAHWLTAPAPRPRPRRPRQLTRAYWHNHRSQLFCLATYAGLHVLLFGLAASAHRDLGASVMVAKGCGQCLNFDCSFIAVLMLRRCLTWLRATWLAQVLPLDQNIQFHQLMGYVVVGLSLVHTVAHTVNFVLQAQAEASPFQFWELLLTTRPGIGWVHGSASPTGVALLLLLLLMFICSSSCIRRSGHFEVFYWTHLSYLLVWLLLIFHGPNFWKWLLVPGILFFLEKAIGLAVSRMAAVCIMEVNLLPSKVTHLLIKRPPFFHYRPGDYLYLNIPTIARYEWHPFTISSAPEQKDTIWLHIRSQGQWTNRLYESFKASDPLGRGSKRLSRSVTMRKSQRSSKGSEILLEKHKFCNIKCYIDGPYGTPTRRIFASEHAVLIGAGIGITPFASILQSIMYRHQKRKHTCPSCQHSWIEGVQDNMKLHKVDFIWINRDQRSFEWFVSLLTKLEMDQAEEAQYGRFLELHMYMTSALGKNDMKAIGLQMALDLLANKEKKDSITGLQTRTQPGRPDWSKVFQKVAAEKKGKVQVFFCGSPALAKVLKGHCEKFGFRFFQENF
Classification field: class 1 = z-score at or over -0.09; class 0 = z-score under -0.09.

The examples below pair each entry with its known result.
[
  {
    "Compound": "CCCCc1nc2c(c3c1C[C@H](C)OC3)CN(CCC(C)C)CC2",
    "Tested on": "NADPH oxidase 5 (Homo sapiens) (UniProt Q96PH1)",
    "Class name": "class 1"
  },
  {
    "Compound": "CCCNC(=O)[C@@H]1c2ccccc2C(=O)N(Cc2ccccc2Cl)[C@H]1c1ccc(CO)cc1",
    "Tested on": "NADPH oxidase 5 (Homo sapiens) (UniProt Q96PH1)",
    "Class name": "class 0"
  },
  {
    "Compound": "CN1C(=O)C2C=CC(C(O)c3ccc(Br)cc3)N(N(c3ccccc3)c3ccccc3)C2C1=O (stereo not drawn)",
    "Tested on": "NADPH oxidase 5 (Homo sapiens) (UniProt Q96PH1)",
    "Class name": "class 1"
  },
  {
    "Compound": "CO[C@H]1COC(=O)CC=C[C@H](C)[C@@H](NS(=O)(=O)c2ccc(C)cc2)COC(=O)CC=C[C@@H]1C",
    "Tested on": "NADPH oxidase 5 (Homo sapiens) (UniProt Q96PH1)",
    "Class name": "class 1"
  },
  {
    "Compound": "CCN1C(=O)[C@H]2[C@H]3[C@H](O)[C@H](O)CC(=NOC[C@@H](C)[C@H](OCc4ccccc4)C(C)C)[C@@H]3CC[C@H]2C1=O",
    "Tested on": "NADPH oxidase 5 (Homo sapiens) (UniProt Q96PH1)",
    "Class name": "class 0"
  }
]

Say whether "CO[C@@H]1COC(=O)CC=C[C@@H](C)[C@@H]2C=C[C@H](O)[C@@H](COC(=O)[C@H](C)NC(=O)CC=C[C@H]1C)O2" shows z-score of -0.09 or more.
class 1

Is z-score at least -0.09? Consider "COC(=O)CC=C[C@@H](C)[C@@H](C=NO[C@@H](C)c1cc(-c2c(C)cc(C)cc2C)no1)OC"
class 0

* * *

molecular target: Calmodulin-1 (Homo sapiens); test: calcium-bound CALM1 binders on microarrays, profiling panel, artefact control for SMM control-protein annotation, biochemical, small-molecule microarray, Cy5-labelled CALM1, plus calcium (AID 1112); details: Cy5-CALM1 binding fluorescence, higher = more signal;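 also: score merges spot fluorescence with signal to noise from triplicate slides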
Would you mind telling me the reported composite z-score of each entry?
Answers are plain numbers.

Solved entries:
[
  {
    "Compound": "CCN1C(=O)[C@H]2[C@H]3[C@H](O)[C@H](O)CC(=NOC(C)CN4CCCCc5nc(C)c(C)cc54)[C@@H]3CC[C@H]2C1=O (some centres not stated)",
    "Readout value": -1.31
  },
  {
    "Compound": "COC(=O)[C@H](C)NC(=O)CCC1CC(OC(=O)NCCc2ccc(F)cc2)CC2(CCCC(COC(=O)NCCc3ccc(Cl)cc3)O2)O1 (some centres not stated)",
    "Readout value": 0.232
  }
]

Provide each entry's composite z-score from the list below.
1. CC(C)CON=C1C[C@@H](O)[C@@H](O)[C@@H]2[C@@H]3C(=O)N(Cc4ccccc4)C(=O)[C@@H]3CC[C@@H]12
2. O=C1[C@H]2[C@H]3[C@H](O)[C@H](O)CC(=NOCc4ccccc4)[C@@H]3CC[C@H]2C(=O)N1Cc1ccccc1

-0.475
-0.374

State recorded composite z-score for all listed compounds.
1. c1ccc(C2NCCc3c2[nH]c2ccccc32)cc1 (configuration not stated)
2. C=CC[C@]1(C(=O)NCc2ccccc2)N=C(c2ccc(OCCCO)cc2)O[C@H]1c1ccccc1
3. CC(C)=CCCC(C)=CCON=C1C[C@@H](O)[C@@H](O)[C@@H]2[C@@H]3C(=O)N(C[C@@H]4CCCO4)C(=O)[C@@H]3CC[C@@H]12

1: -0.951; 2: -0.483; 3: -1.4
